Origin of the recorded values: patent US20260242478A1

# Measured Target: T1, Anti-CD28 Fab (SEQ ID NOs: 696, 697)
# T1 construct: In the phage ELISA the Fab was biotinylated and captured on neutravidin coated plates
# T1 sequence (VH, as listed by the source, chain 1 of 2): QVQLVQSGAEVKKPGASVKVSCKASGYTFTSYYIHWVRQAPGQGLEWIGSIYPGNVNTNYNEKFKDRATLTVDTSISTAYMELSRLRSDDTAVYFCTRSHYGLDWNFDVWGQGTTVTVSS
# T1 sequence (VL, as listed by the source, chain 2 of 2): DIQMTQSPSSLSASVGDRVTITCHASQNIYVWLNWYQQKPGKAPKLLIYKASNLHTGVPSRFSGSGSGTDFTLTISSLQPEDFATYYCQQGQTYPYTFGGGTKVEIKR
# Protocol Summary: phage binding ELISA on plate-captured Fab, competitor CD28 antigen
Where no end group is shown, it is not given here.
Measured Attribute: Anti-CD28 Fab signal in the presence of CD28
// return just the number, without any unit appended

Entry YCAGHAWQYINKCL (cysteine pairing not given here; also: displayed on phage, fused to pIII, Clonal phage supernatant; not shown: bacteriophage pIII to which the peptide is fused for display) [Phage-466] has what Anti-CD28 Fab signal in the presence of CD28?
0.07

Data request, read-out Anti-CD28 Fab signal in the presence of CD28, for PDCQTILFKPWCVR (cysteine pairing not given here; also: displayed on phage, fused to pIII, Clonal phage supernatant; not shown: bacteriophage pIII to which the peptide is fused for display) [Phage-457]
0.06

Return reported Anti-CD28 Fab signal in the presence of CD28; argument: ACDTYFAGMINECF (cysteine pairing not given here; also: displayed on phage, fused to pIII, Clonal phage supernatant; not shown: bacteriophage pIII to which the peptide is fused for display) [Phage-458]
0.1
